Parameter: activation (protection from cell death). Scope: all listed entries.
experimentalProtocol: inhibitors of TNF-alpha triggered necroptosis, primary screen, cell-based, Jurkat FADD-/-, single concentration (AID 463075);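 also: necroptosis triggered by 40 ng/mL TNF-alpha added together with compound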
statedConditions: Jurkat FADD-/- TNF necroptosis rescue, ATP luminescence, 24 h; at 10 µM; active compounds read high; 0 = TNF only, 100 = no-TNF cells
Out of some 220,000 compounds screened, about 150 (0.068%) were called active. The list comes from a sample in which actives are over-represented; it also holds close analogues and randomly drawn compounds.

compoundString: Cc1cc([N+](=O)[O-])nn1CCCC(=O)Nc1cccnc1Cl
activation (protection from cell death) (%): 0.812

compoundString: COc1ccc(CC(=O)NCc2nnc(SCC(=O)Nc3ncc(C)s3)n2C)cc1
activation (protection from cell death) (%): 1.73

compoundString: O=C(N/N=C1\CCSC1)c1cc(Cl)ccc1O
activation (protection from cell death) (%): -0.00524

compoundString: O=C(COC(=O)Cc1ccc(Br)cc1)Nc1c(F)c(F)c(F)c(F)c1F
activation (protection from cell death) (%): -0.784
